ASSAY_INFO: Brain to plasma permeability coefficient, Kp of the compound in rat
Assay type: ADME, cell-free
Parameter threshold = 0.3. Response is true (1) when Kp meets or exceeds it, else false (0).

Worked cases, answers included:
>>> df
                                smiles_data      class
0  COc1cc(N2CC(NC(=O)c3cc4c(C)n(C)nc4cn3)C2)c(Cl)cn1   true (1)
1  Cn1nnc2ccc(C(=O)NC3CN(c4cc(Cl)ncc4Cl)C3)cc21  false (0)
2  Cc1c2cc(C(=O)NC3CN(c4cc(Cl)ncc4Cl)C3)ccc2nn1C  false (0)
3  Cc1nc2cnc(C(=O)NC3CN(c4cc(Cl)ncc4Cl)C3)cn2c1C  false (0)
4  Cc1nc2ccc(C(=O)NC3CN(c4cc(Cl)ncc4Cl)C3)cn2c1C  false (0)

[Q] Determine whether this molecule has Kp no lower than 0.3: `Cc1nn(C)c2cnc(C(=O)NC3CN(c4cc(Cl)ncc4Cl)C3)cc12`
[A] false (0)

---

ASSAY_INFO: Unbound brain-to-plasma concentration ratio in rat
Type: ADME, cell-free
CONDITION: read-out: K(p,uu,brain)
compounds and their reported Kp uu

[Q] Request the reported Kp uu associated with `Cc1c2cc(C(=O)NC3CN(c4cc(Cl)ncc4Cl)C3)ccc2nn1C`
[A] 0.04

---

ASSAY_INFO: Unbound fraction in human plasma
Format: ADME, cell-free
compounds and their reported fraction unbound

Answered cases to consult:
                                smiles_data  value_observed
0  Cc1c2cc(C(=O)NC3CN(c4cc(Cl)ncc4Cl)C3)ccc2nn1C           0.043
1  COc1cc(N2CC(NC(=O)c3cc4c(C)n(C)nc4cn3)C2)c(Cl)cn1           0.017
2  Cc1nc2ccc(C(=O)NC3CN(c4cc(Cl)ncc4Cl)C3)cn2c1C            0.03

[Q] Request the reported fraction unbound associated with `Cc1c2cc(C(=O)NC3CN(c4cc(Cl)ncc4Cl)C3)ncc2nn1C`
[A] 0.014

[Q] Request the reported fraction unbound associated with `COc1cc(N2CC(NC(=O)c3cn4c(C)c(C)nc4cn3)C2)c(Cl)cn1`
[A] 0.045

---

compounds and their reported EC50
TGT: Muscarinic acetylcholine receptor M4 (Rattus norvegicus)
Sequence (P08485 whole entry): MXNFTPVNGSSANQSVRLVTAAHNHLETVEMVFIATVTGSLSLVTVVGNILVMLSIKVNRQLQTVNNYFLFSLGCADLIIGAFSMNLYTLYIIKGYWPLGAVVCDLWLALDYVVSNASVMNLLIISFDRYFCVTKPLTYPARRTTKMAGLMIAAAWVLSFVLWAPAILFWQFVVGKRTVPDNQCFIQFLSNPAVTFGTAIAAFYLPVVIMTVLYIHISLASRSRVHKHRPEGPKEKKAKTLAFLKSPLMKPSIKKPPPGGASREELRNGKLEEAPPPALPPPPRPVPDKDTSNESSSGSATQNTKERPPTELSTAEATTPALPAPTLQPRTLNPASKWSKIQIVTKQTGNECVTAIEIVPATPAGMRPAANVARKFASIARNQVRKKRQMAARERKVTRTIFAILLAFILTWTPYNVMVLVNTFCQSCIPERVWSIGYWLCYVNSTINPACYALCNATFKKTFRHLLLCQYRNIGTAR
ASSAY_INFO: Positive allosteric modulation of rat muscarinic M4 receptor
Output spec: scalar in nM, unitless text.

>>> print(df.to_string())
                                smiles_data  reported_metric  value_observed
0  COc1cc(N2CC(NC(=O)c3cn4c(C)c(C)nc4cn3)C2)c(Cl)cn1             EC50             295
1  Cc1nc2cnc(C(=O)NC3CN(c4cc(Cl)ncc4Cl)C3)cn2c1C             EC50             233
2  COc1cc(N2CC(NC(=O)c3cc4c(C)n(C)nc4cn3)C2)c(Cl)cn1             EC50             339
3  Cc1nc2ccc(C(=O)NC3CN(c4cc(Cl)ncc4Cl)C3)cn2c1C             EC50             433
4  Cc1c2cc(C(=O)NC3CN(c4cc(Cl)ncc4Cl)C3)ncc2nn1C             EC50             331

[Q] # returns recorded EC50 (system: Muscarinic acetylcholine receptor M4 (Rattus norvegicus)) for `Cn1c(C(F)(F)F)nc2ccc(C(=O)NC3CN(c4cc(Cl)ncc4Cl)C3)cc21`
[A] 378

---

compounds and their reported CLint scaled
ASSAY_INFO: Intrinsic clearance in human microsomes
Assay type: ADME, Microsome
Output spec: scalar in mL/min/kg, unitless text.

Answered cases to consult:
>>> df
                                smiles_data  unit_of_measure  value_observed
0  Cc1nn(C)c2cnc(C(=O)NC3CN(c4cc(Cl)ncc4Cl)C3)cc12        mL/min/kg              28
1  Cc1nc2ccc(C(=O)NC3CN(c4cc(Cl)ncc4Cl)C3)cn2c1C        mL/min/kg              39
2  COc1cc(N2CC(NC(=O)c3cn4c(C)c(C)nc4cn3)C2)c(Cl)cn1        mL/min/kg              25

[Q] Request the reported CLint scaled associated with `Cc1nc2cnc(C(=O)NC3CN(c4cc(Cl)ncc4Cl)C3)cn2c1C`
[A] 33

[Q] Request the reported CLint scaled associated with `COc1cc(N2CC(NC(=O)c3cc4c(C)n(C)nc4cn3)C2)c(Cl)cn1`
[A] 28

[Q] Request the reported CLint scaled associated with `Cc1c2cc(C(=O)NC3CN(c4cc(Cl)ncc4Cl)C3)ncc2nn1C`
[A] 26

---

ASSAY_INFO: Unbound fraction in rat plasma
Type: ADME, cell-free
compounds and their reported fraction unbound
// return a plain number; no unit text

                                smiles_data  value_observed
0  Cc1c2cc(C(=O)NC3CN(c4cc(Cl)ncc4Cl)C3)ccc2nn1C           0.042

[Q] Request the reported fraction unbound associated with `Cc1c2cc(C(=O)NC3CN(c4cc(Cl)ncc4Cl)C3)ncc2nn1C`
[A] 0.022

---

ASSAY_INFO: Intrinsic clearance in rat microsomes
Format: ADME, Microsome
REPORTED_METRIC: CLint scaled (mL/min/kg)
Output spec: scalar in mL/min/kg, unitless text.

Answered cases to consult:
                                smiles_data  unit_of_measure  value_observed
0  COc1cc(N2CC(NC(=O)c3cc4c(C)n(C)nc4cn3)C2)c(Cl)cn1        mL/min/kg              33
1  Cc1nc2cnc(C(=O)NC3CN(c4cc(Cl)ncc4Cl)C3)cn2c1C        mL/min/kg              96
2  Cc1c2cc(C(=O)NC3CN(c4cc(Cl)ncc4Cl)C3)ncc2nn1C        mL/min/kg              59

Shift focus to the following entry.
[Q] Request the reported CLint scaled associated with `COc1cc(N2CC(NC(=O)c3cn4c(C)c(C)nc4cn3)C2)c(Cl)cn1`
[A] 83

---

ASSAY_INFO: Unbound brain-to-plasma concentration ratio in rat
Format: ADME, cell-free
CONDITION: read-out: K(p,uu,brain)
molecules and their reported Kp uu
// return a plain number; no unit text

>>> df
                                smiles_data  reported_metric  value_observed
0  COc1cc(N2CC(NC(=O)c3cc4c(C)n(C)nc4cn3)C2)c(Cl)cn1            Kp uu            0.97
1  Cc1c2cc(C(=O)NC3CN(c4cc(Cl)ncc4Cl)C3)ncc2nn1C            Kp uu            0.41
2  Cc1nc2ccc(C(=O)NC3CN(c4cc(Cl)ncc4Cl)C3)cn2c1C            Kp uu            0.21

Shift focus to the following entry.
[Q] Request the reported Kp uu associated with `Cc1nc2cnc(C(=O)NC3CN(c4cc(Cl)ncc4Cl)C3)cn2c1C`
[A] 1.09

---

ASSAY_INFO: Unbound fraction in human plasma
Assay type: ADME, cell-free
REPORTED_METRIC: fraction unbound
// return a plain number; no unit text

Answered cases to consult:
                                smiles_data  value_observed
0  Cc1nn(C)c2cnc(C(=O)NC3CN(c4cc(Cl)ncc4Cl)C3)cc12           0.039
1  Cn1nnc2ccc(C(=O)NC3CN(c4cc(Cl)ncc4Cl)C3)cc21           0.132

[Q] Request the reported fraction unbound associated with `Cc1nc2cnc(C(=O)NC3CN(c4cc(Cl)ncc4Cl)C3)cn2c1C`
[A] 0.04

---

ASSAY_INFO: Unbound fraction in rat plasma
Type: ADME, cell-free
REPORTED_METRIC: fraction unbound
// return a plain number; no unit text

Answered cases to consult:
In [3]: df
Out[3]:
                                smiles_data   reported_metric  value_observed
0  Cn1nnc2ccc(C(=O)NC3CN(c4cc(Cl)ncc4Cl)C3)cc21  fraction unbound           0.024
1  COc1cc(N2CC(NC(=O)c3cn4c(C)c(C)nc4cn3)C2)c(Cl)cn1  fraction unbound           0.017
2  Cc1nc2cnc(C(=O)NC3CN(c4cc(Cl)ncc4Cl)C3)cn2c1C  fraction unbound           0.009
3  Cc1nc2ccc(C(=O)NC3CN(c4cc(Cl)ncc4Cl)C3)cn2c1C  fraction unbound           0.013
4  Cc1nn(C)c2cnc(C(=O)NC3CN(c4cc(Cl)ncc4Cl)C3)cc12  fraction unbound           0.011

Shift focus to the following entry.
[Q] Request the reported fraction unbound associated with `COc1cc(N2CC(NC(=O)c3cc4c(C)n(C)nc4cn3)C2)c(Cl)cn1`
[A] 0.022
